The measurements presented in this section are drawn from patent US10981875B2.

target: human topoisomerase II (Homo sapiens); assay: Topoisomerase II decatenation assay; assay type: biochemical; conditions: Table 2; decatenation assay; read-out: Topo II IC50
pIC50: −log10 of the molar value.
Readout Type: pIC50

INSERT INTO assay_data (molecule, recorded_result) VALUES
  ('COc1c(N2CC[C@@H](CN)C2)c(F)cc2c(=O)c(C(=O)O)cn(Cc3ccc(-c4ccccc4)cc3)c12 [Compound 217]', 3.89),
  ('COc1c(N2CC[C@@H](CN)C2)c(F)cc2c(=O)c(C(=O)O)cn(Cc3ccc4ccccc4c3)c12 [Compound 227]', 3.78);

###

molecular target: human topoisomerase II (Homo sapiens, UniProt P11388); assay: Topoisomerase II decatenation assay; type: biochemical; settings: Table 1; decatenation assay; read-out: Topo II IC50
Sequence (P11388 whole entry): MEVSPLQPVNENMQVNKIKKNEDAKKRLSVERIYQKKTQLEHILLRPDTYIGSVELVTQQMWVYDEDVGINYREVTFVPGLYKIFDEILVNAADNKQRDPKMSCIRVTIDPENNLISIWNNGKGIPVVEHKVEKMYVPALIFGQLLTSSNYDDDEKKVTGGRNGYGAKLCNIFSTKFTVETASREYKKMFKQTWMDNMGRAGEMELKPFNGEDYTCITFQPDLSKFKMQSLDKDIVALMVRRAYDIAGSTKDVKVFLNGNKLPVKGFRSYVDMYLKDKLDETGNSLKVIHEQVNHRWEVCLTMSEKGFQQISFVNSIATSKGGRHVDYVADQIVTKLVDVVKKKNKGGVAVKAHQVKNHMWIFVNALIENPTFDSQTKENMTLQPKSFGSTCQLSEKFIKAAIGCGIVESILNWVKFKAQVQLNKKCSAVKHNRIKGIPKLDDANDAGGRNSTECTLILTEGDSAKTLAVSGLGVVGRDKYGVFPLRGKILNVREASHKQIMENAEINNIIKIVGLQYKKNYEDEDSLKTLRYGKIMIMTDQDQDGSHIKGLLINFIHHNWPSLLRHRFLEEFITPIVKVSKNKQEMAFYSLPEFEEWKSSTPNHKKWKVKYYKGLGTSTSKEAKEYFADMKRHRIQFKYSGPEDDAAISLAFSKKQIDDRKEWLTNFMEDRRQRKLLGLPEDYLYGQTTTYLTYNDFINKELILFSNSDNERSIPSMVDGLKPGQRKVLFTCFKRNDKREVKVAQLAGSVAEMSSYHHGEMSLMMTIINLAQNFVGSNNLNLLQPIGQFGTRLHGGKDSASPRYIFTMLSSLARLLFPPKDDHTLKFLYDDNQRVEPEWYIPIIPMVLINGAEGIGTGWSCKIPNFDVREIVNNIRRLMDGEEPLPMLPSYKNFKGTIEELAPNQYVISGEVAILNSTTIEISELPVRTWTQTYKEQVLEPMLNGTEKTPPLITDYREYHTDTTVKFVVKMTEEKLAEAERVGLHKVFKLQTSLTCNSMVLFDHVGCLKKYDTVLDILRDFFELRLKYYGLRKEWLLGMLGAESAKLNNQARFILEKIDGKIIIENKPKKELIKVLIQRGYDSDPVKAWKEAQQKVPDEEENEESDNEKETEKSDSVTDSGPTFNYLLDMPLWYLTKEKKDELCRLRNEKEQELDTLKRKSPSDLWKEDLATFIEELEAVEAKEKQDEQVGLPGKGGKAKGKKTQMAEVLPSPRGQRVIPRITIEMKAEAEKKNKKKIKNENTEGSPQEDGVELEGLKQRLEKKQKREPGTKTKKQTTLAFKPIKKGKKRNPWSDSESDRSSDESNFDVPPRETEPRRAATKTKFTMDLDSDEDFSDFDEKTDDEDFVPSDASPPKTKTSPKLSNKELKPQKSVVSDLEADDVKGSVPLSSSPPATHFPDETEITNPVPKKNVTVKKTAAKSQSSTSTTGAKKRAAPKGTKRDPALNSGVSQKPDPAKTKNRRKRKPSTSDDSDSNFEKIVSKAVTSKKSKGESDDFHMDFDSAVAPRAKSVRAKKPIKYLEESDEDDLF
Below: a set of entries, each annotated with reported IC50.
Readout Type: IC50 (µM)

INSERT INTO measurements (compound_structure_string, readout_type, output_unit, recorded_result) VALUES
  ('COc1c(N2CC[C@@H](CN)C2)c(F)cc2c(=O)c(C(=O)O)cn(Cc3ccc4ccccc4c3)c12', 'IC50', 'µM', 165),
  ('COc1c(N2CC[C@@H](CN)C2)c(F)cc2c(=O)c(C(=O)O)cn(Cc3ccc(-c4ccccc4)cc3)c12', 'IC50', 'µM', 128);
